The origin of these recorded values is ChEMBL document CHEMBL5038675.

experiment: Lipophilicity, logP of compound; type: physicochemical; conditions: octanol/water

# compound.structure, logP
rows = [
    ("Cc1cc(C)cc(-c2nc(NC(=O)c3cccnc3)sc2-c2ccncc2)c1", 4.68),
]

====

target: 5-hydroxytryptamine receptor 2C (Homo sapiens, UniProt P28335)
Sequence (P28335 whole entry): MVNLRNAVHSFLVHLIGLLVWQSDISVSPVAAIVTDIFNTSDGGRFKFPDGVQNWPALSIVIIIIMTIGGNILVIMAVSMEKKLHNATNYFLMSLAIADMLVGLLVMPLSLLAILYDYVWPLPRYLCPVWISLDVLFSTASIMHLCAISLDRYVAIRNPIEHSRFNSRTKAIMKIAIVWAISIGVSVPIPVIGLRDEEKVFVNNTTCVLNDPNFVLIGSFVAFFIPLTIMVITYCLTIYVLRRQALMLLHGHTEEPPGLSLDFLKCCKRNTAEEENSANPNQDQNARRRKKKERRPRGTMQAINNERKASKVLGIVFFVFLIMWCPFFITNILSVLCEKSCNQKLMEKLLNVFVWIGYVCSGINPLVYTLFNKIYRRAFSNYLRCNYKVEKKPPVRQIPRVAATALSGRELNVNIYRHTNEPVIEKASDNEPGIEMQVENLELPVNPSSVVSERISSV
pKi: −log10 of the molar value.

# compound.structure, pKi
data = [
    ("Cc1cc(C)cc(-c2nc(NC(=O)c3cccnc3)sc2-c2ccncc2)c1", 6.10),
]

====

biological target: Adenosine receptor A2a (Mus musculus)
Sequence (Q60613 whole entry): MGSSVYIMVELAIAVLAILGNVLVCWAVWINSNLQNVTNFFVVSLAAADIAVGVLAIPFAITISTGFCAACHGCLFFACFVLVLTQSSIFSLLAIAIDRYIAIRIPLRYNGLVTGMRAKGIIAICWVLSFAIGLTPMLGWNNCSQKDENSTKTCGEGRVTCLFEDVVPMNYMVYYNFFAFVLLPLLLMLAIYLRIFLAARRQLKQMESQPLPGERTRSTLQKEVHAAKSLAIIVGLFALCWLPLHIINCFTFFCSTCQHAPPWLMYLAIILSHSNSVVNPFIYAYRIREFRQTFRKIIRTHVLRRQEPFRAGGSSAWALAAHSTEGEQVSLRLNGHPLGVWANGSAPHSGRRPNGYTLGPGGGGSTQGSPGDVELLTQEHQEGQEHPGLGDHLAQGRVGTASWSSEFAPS
pKi: −log10 of the molar value.

# compound.structure, pKi
records = [
    ("Cc1cc(C)cc(-c2nc(NC(=O)c3cccnc3)sc2-c2ccncc2)c1", 6.08),
]

====

biological target: UniProtKB P29274; experiment: Displacement of [3H] ZM241385 from human adenosine A2A receptor expressed in HEK293 cells at 10 uM incubated for 60 mins by radioligand binding assay; format: cell-based
Listed compounds paired with reported inhibition
reported.property: inhibition (%)

# compound.structure, reported.property, measured.number
records = [
    ("Cc1cc(Br)cc(-c2nc(NC(=O)c3cccnc3)sc2-c2ccncc2)c1", "inhibition", -7.3),
    ("COC(=O)/C=C/c1cc(C)cc(-c2nc(NC(=O)c3cccnc3)sc2-c2ccncc2)c1", "inhibition", 15),
    ("CCCOC(=O)c1c(-c2ccccc2)nc(CC)c(C(=O)SCC)c1CCC", "inhibition", 16.4),
    ("Cc1cc(C#Cc2ccc(Cl)s2)cc(-c2nc(NC(=O)c3cccnc3)sc2-c2ccncc2)c1", "inhibition", -0.5),
]

====

target: Sigma intracellular receptor 2 (Homo sapiens); test: Binding affinity to human sigma2 receptor by radioligand binding assay
Sequence (Q5BJF2 whole entry): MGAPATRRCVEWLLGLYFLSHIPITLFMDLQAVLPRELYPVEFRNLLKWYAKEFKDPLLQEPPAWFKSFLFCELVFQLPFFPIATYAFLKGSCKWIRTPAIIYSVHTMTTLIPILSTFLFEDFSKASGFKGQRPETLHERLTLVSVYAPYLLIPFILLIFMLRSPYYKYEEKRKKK

# compound.structure, measured.target, unit.name, Ki
measured = [
    ("Cc1cc(I)cc(-c2nc(NC(=O)c3cccnc3)sc2-c2ccncc2)c1", "Sigma intracellular receptor 2 (Homo sapiens)", "µM", 3.69),
]

====

Consider the following compounds and their measured Ki readings.
molecular target: UniProt Q61618; experiment: Binding affinity to mouse adenosine A3 receptor measured by radioligand binding assay
Sequence (Q61618 whole entry): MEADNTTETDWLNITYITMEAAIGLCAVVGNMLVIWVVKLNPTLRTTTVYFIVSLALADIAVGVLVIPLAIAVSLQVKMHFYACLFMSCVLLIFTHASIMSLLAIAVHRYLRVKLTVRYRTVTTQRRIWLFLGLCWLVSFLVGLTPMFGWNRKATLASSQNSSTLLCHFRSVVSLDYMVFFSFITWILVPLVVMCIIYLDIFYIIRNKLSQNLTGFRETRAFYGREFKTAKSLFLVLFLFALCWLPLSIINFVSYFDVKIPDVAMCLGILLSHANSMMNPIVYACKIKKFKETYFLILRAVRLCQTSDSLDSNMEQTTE
reported.property: Ki

# compound.structure, measured.target, result
records = [
    ("CCCn1cc2c(nc(NC(=O)Nc3ccc(OC)cc3)n3nc(-c4ccco4)nc23)n1", "UniProt Q61618", "> 10 µM"),
    ("CC[C@@H]1CN2C(=O)N(C)c3nc(-c4ccccc4)[nH]c3C2=N1", "UniProt Q61618", "6.36 µM"),
]

====

assay: Half life in Sprague-Dawley rat plasma at 1 mg/kg, iv measured after 8 hrs by LC-MS/MS analysis; type: ADME, organism-based

# compound.structure, unit.name, half-life
rows = [
    ("Cc1cc(C)cc(-c2nc(NC(=O)c3cccnc3)sc2-c2ccncc2)c1", "min", 48),
]

====

Here's what we have: pKi numbers for Adenosine receptor A2a (Homo sapiens).
pKi: −log10 of the molar value.

# compound.structure, modifier, pKi
measured = [
    ("Cc1cc(C)cc(-c2nc(NC(=O)c3cncc(Br)c3)sc2-c2ccncc2)c1", "<", 6.00),
    ("Cc1cc(C)cc(-c2nc(NC(=O)c3cccnc3)sc2-c2ccncc2)c1", "=", 6.92),
]

====

target: Adenosine receptor A2b (Mus musculus)
Sequence (Q60614 whole entry): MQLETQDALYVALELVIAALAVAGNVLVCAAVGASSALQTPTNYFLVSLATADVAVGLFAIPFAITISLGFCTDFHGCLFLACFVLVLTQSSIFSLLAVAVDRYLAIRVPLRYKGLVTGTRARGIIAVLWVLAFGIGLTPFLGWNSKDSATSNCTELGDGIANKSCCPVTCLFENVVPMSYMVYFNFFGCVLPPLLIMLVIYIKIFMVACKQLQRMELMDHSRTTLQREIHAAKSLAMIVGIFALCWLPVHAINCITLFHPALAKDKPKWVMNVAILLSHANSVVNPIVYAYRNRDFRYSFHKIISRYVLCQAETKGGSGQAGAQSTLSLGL
pKi: −log10 of the molar value.
reported.property: pKi

# compound.structure, measured.number
measured = [
    ("Cc1cc(C)cc(-c2nc(NC(=O)c3cccnc3)sc2-c2ccncc2)c1", 6.72),
]
